This collection of values is drawn from the supplement of paper PMC10567573.

B1: KCNA3 (parent)
chain: GERVVINISGLRFETQLKTLCQFP

Variants of: B1
assay-comment: protein stability index of a GFP-peptide fusion (GPS, HEK-293T) (PSI 1-6); higher = more stable;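 also: lentivirally expressed fusions sorted by FACS into six bins by GFP to DsRed ratio, PSI derived from sequencing read proportions per bin multiplied by bin number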
run-conditions: c terminus: a fixed tail appended
measured-metric: protein stability index
// return just the number, without any unit appended

>  <residues>
GERVVINISGLRFETQLCTLCQFP [K18C]

>  <measured-metric>
protein stability index

>  <val>
1.92

$$$$

IN: I would be grateful if you could share the reported protein stability index for GERVVINISGLRFETQLKTLGQFP [C21G] .
OUT: 1

IN: Look up protein stability index: GERVVANISGLRFETQLKTLCQFP [I6A]
OUT: 2.21

IN: Look up protein stability index: GETVVINISGLRFETQLKTLCQFP [R3T]
OUT: 3.87

IN: Field request: protein stability index | item: GERCVINISGLRFETQLKTLCQFP [V4C]
OUT: 3.21

IN: I have this variant here, GERVVINISGLRFVTQLKTLCQFP [E14V] , and I need its recorded protein stability index.
OUT: 3

IN: Please look up its protein stability index: GERDVINISGLRFETQLKTLCQFP [V4D]
OUT: 1.88

IN: May I ask what protein stability index has been recorded for GERVVINISGLRQETQLKTLCQFP [F13Q] ?
OUT: 1.87

IN: protein stability index for GERVVINISGLRFETQLKTLCCFP [Q22C] ?
OUT: 4.8
